target: JAK1 (Homo sapiens); assay: JAK assay (KINASE-GLO luminescent kinase assay), JAK1; type: biochemical; conditions: 10 nM JAK enzyme, 800 nM Abl peptide, room temperature 75 min
Sequence (P23458 whole entry): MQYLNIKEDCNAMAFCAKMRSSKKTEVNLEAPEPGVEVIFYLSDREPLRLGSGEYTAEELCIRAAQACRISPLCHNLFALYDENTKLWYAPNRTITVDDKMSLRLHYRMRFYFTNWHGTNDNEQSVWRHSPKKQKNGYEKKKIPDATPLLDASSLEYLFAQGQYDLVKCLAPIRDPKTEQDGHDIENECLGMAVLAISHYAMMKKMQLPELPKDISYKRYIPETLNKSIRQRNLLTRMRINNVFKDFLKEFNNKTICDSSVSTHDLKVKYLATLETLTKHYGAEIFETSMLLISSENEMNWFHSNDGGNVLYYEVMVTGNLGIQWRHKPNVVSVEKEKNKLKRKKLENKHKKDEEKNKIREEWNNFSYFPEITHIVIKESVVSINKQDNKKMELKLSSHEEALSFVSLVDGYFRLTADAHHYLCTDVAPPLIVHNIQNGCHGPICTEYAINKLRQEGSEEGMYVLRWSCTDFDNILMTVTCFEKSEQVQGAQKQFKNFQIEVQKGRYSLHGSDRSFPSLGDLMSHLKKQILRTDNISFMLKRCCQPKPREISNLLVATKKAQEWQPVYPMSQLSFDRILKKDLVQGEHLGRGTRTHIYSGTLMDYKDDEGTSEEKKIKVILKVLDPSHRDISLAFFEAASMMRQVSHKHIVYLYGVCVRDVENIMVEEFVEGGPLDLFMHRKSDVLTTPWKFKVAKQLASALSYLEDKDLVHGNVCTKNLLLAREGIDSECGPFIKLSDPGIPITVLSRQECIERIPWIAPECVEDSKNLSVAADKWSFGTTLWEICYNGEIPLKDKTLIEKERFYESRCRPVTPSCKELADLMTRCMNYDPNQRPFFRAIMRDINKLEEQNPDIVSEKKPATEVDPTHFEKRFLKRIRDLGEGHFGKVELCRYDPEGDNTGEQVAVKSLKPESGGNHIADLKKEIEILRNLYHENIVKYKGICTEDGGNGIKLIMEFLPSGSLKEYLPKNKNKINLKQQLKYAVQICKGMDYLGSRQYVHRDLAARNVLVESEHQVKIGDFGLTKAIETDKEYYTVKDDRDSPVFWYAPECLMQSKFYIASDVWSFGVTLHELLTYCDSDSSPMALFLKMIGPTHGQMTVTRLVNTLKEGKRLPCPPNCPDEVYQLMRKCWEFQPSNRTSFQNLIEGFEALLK
Task for the reader: assign each of the following molecules its reported IC50.

Worked examples follow.
# MOLECULE, REPORTED_VALUE
rows = [
    ("Cc1cnc(Nc2ccc3c(c2)CN(C)C3)nc1-c1cnn(CC2(CF)CC2)c1", "< 10 nM"),
    ("CS(=O)(=O)N(c1ncc(Cl)c(-c2cnn(CCC#N)c2)n1)S(C)(=O)=O [C[S](═O)(═O)NC1═NC(═C]", "< 100000 nM"),
    ("COC(=O)c1ccc(Nc2ncc(Cl)c(-c3cnn(CC4(C#N)CC4)c3)n2)cn1", "< 1000 nM"),
    ("CCS(=O)(=O)N1CC(CO)(Cn2cc(-c3nc(Nc4cc(C)ns4)ncc3Cl)cn2)C1 [CC[S](═O)(═O)N1CC(CO)]", "< 1000 nM"),
    ("Cc1cnc(N2CCCCC2)nc1-c1cnn(CCC#N)c1 [CC1═C(N═C(N═C1)N2CCCCC2)C3═C[N]]", "> 50000 nM"),
]

Hi there! I need IC50 for each item below, if you can.
1. Cc1cnc(Nc2cc(CNC(=O)CCN(C)C)ns2)nc1-c1cnn(CC2(CF)CC2)c1
2. COc1cnc(Nc2cc(COC(=O)c3ccccc3)ns2)nc1-c1cnn(CC2(CF)CC2)c1
3. Cc1cnc(Nc2ccnc(OCCN(C)C)c2)nc1-c1cnn(CC2(CC#N)CC2)c1
4. N#CC1(Cn2cc(-c3nc(Nc4cnc5ccnn5c4)ncc3Cl)cn2)CCC1

[A]
< 10 nM
< 100 nM
< 100 nM
< 100000 nM

Hi there! I need IC50 for each item below, if you can.
1. COc1cnc(Nc2ccc(N3CCN(C)CC3)cc2)nc1-c1cnn(CC2(Cl)CC2)c1
2. NCc1cccc(Nc2ncc(Cl)c(-c3cnn(CC4(CF)CC4)c3)n2)c1
3. Cc1cnc(NCCN2CCCCC2)nc1-c1cnn(CCC#N)c1 [CC1═C(N═C(NCCN2CCCCC2)N═C1)C3═C[N]]
4. Cc1cnc(Nc2ccc(N3CCN(C)CC3)cc2)nc1-c1cnn(CC2(F)CC2)c1

[A]
1. < 100 nM
2. < 100 nM
3. > 50000 nM
4. < 100 nM

Hi there! I need IC50 for each item below, if you can.
1. Cc1cc(Nc2ncc(Cl)c(-c3cnn(CCC#N)c3)n2)no1
2. Cc1cnc(Nc2cn(C)nn2)nc1-c1cnn(CC2(CF)CC2)c1 [C[N]1C═C(NC2═NC(═C(C)C═N2)C3═C[N]]

[A]
< 1000 nM
< 1000 nM

---

Task for the reader: assign each of the following molecules its reported IC50.
biological target: JAK1 (Homo sapiens); experiment: JAK assay (KINASE-GLO luminescent kinase assay), JAK1; type: biochemical; settings: 10 nM JAK enzyme, 800 nM Abl peptide, room temperature 75 min

Worked examples follow.
# MOLECULE, IC50
records = [
    ("CNCc1cc(Nc2ncc(C)c(-c3cnn(CC4(CF)CC4)c3)n2)sn1 [CNCC1═NSC(═C1)NC2═NC(═C]", "< 100 nM"),
    ("Cc1cc(Nc2ncc(C)c(-c3cnn(CC4(CF)CC4)c3)n2)ccc1N1CCN(C)CC1 [CN1CCN(CC1)C2═C(C)C═C(NC3═NC]", "< 100 nM"),
]

Consider the additional molecule presented here.
[Q] Please give the measured IC50 for this molecule: Cc1cnc(NC(=O)Nc2ccc(Cl)cc2)nc1-c1cnn(CC2(CF)CC2)c1 [CC1═C(N═C(NC(═O)NC2═CC═C]
[A] > 50000 nM

Source listed as patent US20250236611A1.
